TEST: FRG1 expression reporter modulators in myotubes – cell-based, C2C12 myotubes, firefly/Renilla luciferase, luminescence, FRG1 inhibition for FSHD, primary screen (AID 1084)
EXPERIMENTAL PARAMETERS: FRG1 promoter luciferase, higher = more signal, called active from +8 up or from −8 down
Measured z-score accompanies every entry in the list below.
READOUT KIND: z-score

# COMPOUND, QUANTITATIVE READOUT
data = [
    ("COCCOC(=O)N1C(=O)[C@@]2(c3cc(C#CCCO)ccc31)[C@H](c1ccccc1OCCO)N1[C@H](c3ccccc3)[C@H](c3ccccc3)OC(=O)[C@H]1[C@@H]2C(N)=O", -1.9),
    ("C=C(C)[C@@H]1CC=C(C(O)C2C=CC3C(=O)N(c4ccccc4)C(=O)C3N2Nc2ccc([N+](=O)[O-])cc2)CC1 (stereo partly specified)", -0.0111),
    ("CC(C)=CCCC(C)=CC(O)C1C=CC2C(=O)NC(=O)C2N1Nc1ccc(Cl)cc1Cl (stereo unspecified)", 1.89),
    ("C=CCC(OC(C)=O)[C@@H]1[C@@H](N(Cc2ccc(-c3cccc(C(F)(F)F)c3)o2)C(=O)Cc2ccc(F)cc2)c2cc(OCCCO)ccc2N1C(=O)Cc1ccc2ccccc2c1 (stereo partly specified)", 0.116),
    ("C=CCC(OC(C)=O)[C@@H]1[C@@H](N(Cc2cccc3ccccc23)C(=O)Cc2ccc(OC)cc2)c2cc(OCCCO)ccc2N1C(=O)c1ccc2ccccc2c1 (stereo partly specified)", -1.75),
    ("C[N+](C)(C)CCCC[C@@H]1NC(=O)[C@H]2C[C@@H](C(=O)NCCCCCNC(=O)CS)[C@@H](c3cccc(OCCO)c3)N2C1=O", -0.474),
]

====

TEST: probe aDKK1 binding to arrayed compounds – biochemical, biotinylated probe, 635/667 nm fluorescence, primary screen (AID 1099);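 also: score merges 667nm spot fluorescence with signal to noise across triplicate slides; reference of the scale not given here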
EXPERIMENTAL PARAMETERS: small-molecule microarray, higher = more signal
Measured composite z-score accompanies every entry in the list below.
READOUT KIND: composite z-score

# MOLECULE, READOUT KIND, QUANTITATIVE READOUT
rows = [
    ("O=C1O[C@H](Cc2ccccc2)[C@@H]2[C@H]3C=CCCC=C3CN2[C@H]1Cc1ccc(O)cc1", "composite z-score", -0.271),
    ("CO[C@H]1O[C@H](CO)[C@@H](OC(=O)Nc2ccccc2)[C@H](OC(=O)Nc2ccccc2)[C@H]1OC(=O)Nc1ccccc1", "composite z-score", -0.0074),
    ("C=C(COC)/C(=C/C[C@H](OC(C)=O)c1ccccc1OCCO)c1cc(C(=O)OC)ccc1OC", "composite z-score", -0.103),
    ("COCC(=C=CC[C@H](O)c1ccccc1OCCO)C[C@H](O)COCc1ccccc1", "composite z-score", 0.132),
    ("CCCC[C@H]1C[C@@H]1[C@@H]1N(C(C)=O)[C@H](c2cccc(OC)c2)CC12CC2", "composite z-score", 0.692),
    ("C=CCC(OC(C)=O)[C@@H]1[C@@H](N(Cc2ccc(-c3ccccc3)cc2)C(=O)c2cccc3ccccc23)c2cc(OCCCO)ccc2N1C(=O)Cc1ccc(OC)cc1 (stereo partly drawn)", "composite z-score", 0.267),
    ("CC(C)(C)N1CC=CC23O[C@@H]4C=CCOC(=O)[C@@H]4[C@H]2C(=O)N(CCO)[C@@H]3C1=O (stereo partly drawn)", "composite z-score", -0.243),
    ("CC(C)OC(=O)CC(=O)CC(O)c1cccc([N+](=O)[O-])c1 (stereo not drawn)", "composite z-score", 0.645),
]
